target: USP8 Rhod domain (Homo sapiens); construct: USP8 Rhod (174–317) (UniProt: P40818); GST (cleaved yes); made in house; host or cells: Escherichia coli BL21-Gold (DE3); assay: Peptide-phage display-based deep mutational scanning (DMS), USP8 Rhod domain; assay type: binding; settings: bait USP8_Rhodanese__P40818_174_317; wild-type/mutant pair ratio of averaged fractions; negative values where mutant fraction is higher
Sequence (P40818 174-317): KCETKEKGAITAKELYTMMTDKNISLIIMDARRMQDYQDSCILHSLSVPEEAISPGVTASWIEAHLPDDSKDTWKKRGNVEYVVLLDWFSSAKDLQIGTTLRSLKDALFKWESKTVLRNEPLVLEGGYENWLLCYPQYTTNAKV
What hit_pair_ratio was measured for each of the following?
Just the number.

USP8 Rhod domain (Homo sapiens) assay, sequence `GLALWEAKMFQLAERA` , recorded hit_pair_ratio = 59.51

USP8 Rhod domain (Homo sapiens) assay, sequence `QMERVLGGLSSPLRLL` , recorded hit_pair_ratio = -4.33

USP8 Rhod domain (Homo sapiens) assay, sequence `GLALWEAKMKQLAENA` , recorded hit_pair_ratio = 55.62

USP8 Rhod domain (Homo sapiens) assay, sequence `GLALWEAKMKQLTERA` , recorded hit_pair_ratio = 133.35

USP8 Rhod domain (Homo sapiens) assay, sequence `SMERVLGGLSSPLRLL` , recorded hit_pair_ratio = -2.25

USP8 Rhod domain (Homo sapiens) assay, sequence `GLALWEAKMKQLAERL` , recorded hit_pair_ratio = 72.57

USP8 Rhod domain (Homo sapiens) assay, sequence `GLALWEAKMKQSAERA` , recorded hit_pair_ratio = 1107.01

USP8 Rhod domain (Homo sapiens) assay, sequence `GLALWEAKMPQLAERA` , recorded hit_pair_ratio = 553.50

USP8 Rhod domain (Homo sapiens) assay, sequence `GLALWEAKMRQLAERA` , recorded hit_pair_ratio = 1.94

USP8 Rhod domain (Homo sapiens) assay, sequence `GLALWEAKMKQLAVRA` , recorded hit_pair_ratio = 20.13

USP8 Rhod domain (Homo sapiens) assay, sequence `GLALWEAKMKWLAERA` , recorded hit_pair_ratio = 221.40

USP8 Rhod domain (Homo sapiens) assay, sequence `GLALWEAKMKQLKERA` , recorded hit_pair_ratio = 184.50

USP8 Rhod domain (Homo sapiens) assay, sequence `GLALWEAKMHQLAERA` , recorded hit_pair_ratio = -2.45

USP8 Rhod domain (Homo sapiens) assay, sequence `GLALWEAKMYQLAERA` , recorded hit_pair_ratio = 31.05

USP8 Rhod domain (Homo sapiens) assay, sequence `GLALWEAKMKQLAWRA` , recorded hit_pair_ratio = 1107.01

USP8 Rhod domain (Homo sapiens) assay, sequence `GLALWEAKMKMLAERA` , recorded hit_pair_ratio = 23.91

USP8 Rhod domain (Homo sapiens) assay, sequence `GLALWEAKMKQLASRA` , recorded hit_pair_ratio = 65.49

USP8 Rhod domain (Homo sapiens) assay, sequence `GLALWEAKMKQAAERA` , recorded hit_pair_ratio = 417.62

USP8 Rhod domain (Homo sapiens) assay, sequence `GLALWEAKMKQLHERA` , recorded hit_pair_ratio = 1.77

USP8 Rhod domain (Homo sapiens) assay, sequence `GLALWEAKMKQLAEHA` , recorded hit_pair_ratio = 25.68

USP8 Rhod domain (Homo sapiens) assay, sequence `GLALWEAKMKGLAERA` , recorded hit_pair_ratio = 5.73

USP8 Rhod domain (Homo sapiens) assay, sequence `TMERVLGGLSSPLRLL` , recorded hit_pair_ratio = -2.57

USP8 Rhod domain (Homo sapiens) assay, sequence `GLALWEAKMKQLAEDA` , recorded hit_pair_ratio = 66.48

USP8 Rhod domain (Homo sapiens) assay, sequence `GLALWEAKMKQLAERY` , recorded hit_pair_ratio = 303.23

USP8 Rhod domain (Homo sapiens) assay, sequence `GLALWEAKMKQLAERD` , recorded hit_pair_ratio = -5.62

USP8 Rhod domain (Homo sapiens) assay, sequence `GLALWEAKMKKLAERA` , recorded hit_pair_ratio = 417.62

USP8 Rhod domain (Homo sapiens) assay, sequence `GLALWEAKMKQLAEFA` , recorded hit_pair_ratio = 208.81

USP8 Rhod domain (Homo sapiens) assay, sequence `GLALWEAKMKQLALRA` , recorded hit_pair_ratio = 13.05

USP8 Rhod domain (Homo sapiens) assay, sequence `GLALWEAKMKVLAERA` , recorded hit_pair_ratio = 553.50

USP8 Rhod domain (Homo sapiens) assay, sequence `GLALWEAKMKILAERA` , recorded hit_pair_ratio = 553.50

USP8 Rhod domain (Homo sapiens) assay, sequence `GLALWEAKMMQLAERA` , recorded hit_pair_ratio = 417.62

USP8 Rhod domain (Homo sapiens) assay, sequence `GLALWEAKMKQLAELA` , recorded hit_pair_ratio = 11.23

USP8 Rhod domain (Homo sapiens) assay, sequence `GLALWEAKMLQLAERA` , recorded hit_pair_ratio = 26.20

USP8 Rhod domain (Homo sapiens) assay, sequence `GLALWEAKMKQLAETA` , recorded hit_pair_ratio = -1.95

USP8 Rhod domain (Homo sapiens) assay, sequence `GLALWEAKMKQLAERN` , recorded hit_pair_ratio = -1.05

USP8 Rhod domain (Homo sapiens) assay, sequence `GLALWEAKMKQLAEWA` , recorded hit_pair_ratio = 38.36

USP8 Rhod domain (Homo sapiens) assay, sequence `GLALWEAKMKALAERA` , recorded hit_pair_ratio = 133.35

USP8 Rhod domain (Homo sapiens) assay, sequence `GLALWEAKMKQLPERA` , recorded hit_pair_ratio = 87.51

USP8 Rhod domain (Homo sapiens) assay, sequence `GLALWEAKMKQLEERA` , recorded hit_pair_ratio = -19.29

USP8 Rhod domain (Homo sapiens) assay, sequence `GLALWEAKMKQLAERS` , recorded hit_pair_ratio = 1.62

USP8 Rhod domain (Homo sapiens) assay, sequence `GLALWEAKMKSLAERA` , recorded hit_pair_ratio = 1.39

USP8 Rhod domain (Homo sapiens) assay, sequence `GLALWEAKMKQMAERA` , recorded hit_pair_ratio = 1107.01

USP8 Rhod domain (Homo sapiens) assay, sequence `GLALWEAKMEQLAERA` , recorded hit_pair_ratio = -4.35

USP8 Rhod domain (Homo sapiens) assay, sequence `GLALWEAKMKQLYERA` , recorded hit_pair_ratio = 195.90

USP8 Rhod domain (Homo sapiens) assay, sequence `GLALWEAKMKQLAEEA` , recorded hit_pair_ratio = 15.47

USP8 Rhod domain (Homo sapiens) assay, sequence `GLALWEAKMKQLAERV` , recorded hit_pair_ratio = -1.88

USP8 Rhod domain (Homo sapiens) assay, sequence `PMERVLGGLSSPLRLL` , recorded hit_pair_ratio = 1.96

USP8 Rhod domain (Homo sapiens) assay, sequence `GLALWEAKMKQLAERQ` , recorded hit_pair_ratio = 3.47

USP8 Rhod domain (Homo sapiens) assay, sequence `GLALWEAKMWQLAERA` , recorded hit_pair_ratio = 2.24

USP8 Rhod domain (Homo sapiens) assay, sequence `GLALWEAKMKQLAMRA` , recorded hit_pair_ratio = 7.80

USP8 Rhod domain (Homo sapiens) assay, sequence `GLALWEAKMKQLAGRA` , recorded hit_pair_ratio = 14.06

USP8 Rhod domain (Homo sapiens) assay, sequence `AMERVLGGLSSPLRLL` , recorded hit_pair_ratio = -9.71

USP8 Rhod domain (Homo sapiens) assay, sequence `GLALWEAKMKQLDERA` , recorded hit_pair_ratio = 184.50

USP8 Rhod domain (Homo sapiens) assay, sequence `GLALWEAKMKYLAERA` , recorded hit_pair_ratio = 55.35

USP8 Rhod domain (Homo sapiens) assay, sequence `GLALWEAKMKQLADRA` , recorded hit_pair_ratio = 175.67

USP8 Rhod domain (Homo sapiens) assay, sequence `GLALWEAKMKQLIERA` , recorded hit_pair_ratio = 369.00

FYI, the data here is from paper PMC12057046.
